Values compiled from patent US20180016324A1.

molecular target: T1, ZIKV (prM80E) with a C-terminal myc-myc-hexahistidine tag (Zika virus, UniProt A0A024B7W1 104-694); test: SPR, mAb captured, 37C
T1 construct: also called ZIKV (prM80E)-mmH; ZIKV-mmH
Here the recorded t½ pH 7.4/t½ pH 5.5 is given for each entry.
readout type: t½ pH 7.4/t½ pH 5.5

• H4H25641P (antibody, V domains shown) VH: QVQLVESGGGVVQPGRSLRLSCAASGFTFSYYGMHWVRQAPGKGLEWVAVISYDASNNYYVDSVKGRFTISRDNSKNTLYLQMNSLRAEDTAVYYCAKDYGGRFDYWGQGTLVTVSS VL: EIVLTQSPGTLSLSPGERATLSCGASQSVSSYLAWYQQKPGQTPRLLIYGASSRATGIPDRFSGSGSGTDFTLTISRLEPEDFAVYYCQQYGSSPWTFGQGTKVEIK = 1.1
• H4H25602P (antibody, V domains shown) VH: EVQLVESGGGLVQPGGSLRLSCAASGFTVSSNYMSWVRQAPGSGLEWVSVIYSGGITHYVDSVKGRFTISRHNSKNTLYLQMNSLRAEDTAMYYCARERYSGITGNPYGFDIWGQGTMVTVSS VL: DIQLTQSPSFLSASVGDRVTITCWASQDISSYLAWYQQKPGIAPKLLIYAASTLQSGVPSRFSGSGSGTEFTLTISSLQPEDFATYYCQQLNIYPFTFGPGTKVDIK = 134
• H4H25598P (antibody, V domains shown) VH: EVQLVESGGGLVQPGGSLRLSCAASGFTVSSNYMSWVRQAPGSGLEWVSVIYSGGITHYIGSVKGRFTISRHNSKNTLYLQMNSLRAEDTAMYYCARERYSGITGNPYGFDFWGQGTMVTVSS VL: DIQLTQSPSFLSASVGDRVTITCWASQDISSYLAWYQQKPGIAPKLLIYSASTLQSGVPSSFSGSGSGTEFTLTISSLQPEDFATYYCQQLNIYPFTFGPGTKVDIK = 187
• H4H25710N (antibody, V domains shown) VH: EVQLLESGGGLVQPGGSLRLSCAASGFTVSNNYMSWVRQAPGKGLEWVSVIYSGGRTNYGDSVKGRFTISRDNSKNTLYLQMNSLRAEDTAVYYCARENYDFWSGDPYGWDVWGQGTTVTVSS VL: DIQMTQSPSSLSASVGDRVTITCRASQDISNYLAWFQQKPGKAPKSLIYGASSLQRGVPSKFRGSGSGTDFTLTISSLQPEDFASYYCQQYNSYPYTFGQGTKLEIK = 33.4
• H4H25592P (antibody, V domains shown) VH: QVQLVESGGGVVQPGRSLRLSCAASGFTFSYSGMHWVRQAPGKGLEWVAVISYDGSNKYYADSVKGRFTISRDNSNNILYLQMNSLRAEDTAVYYCAKDWGGRFDPWGQGTLVTVSS VL: DIQMTQSPSSLSASVGDRVTITCRASQGISSYLAWYQQIPGKVPKLLIYAASTLHSGVPSRFSGSGSGTDFTLTISSLQPADVATYYCQKYNSAPLTFGGGTKVEIK = 4.2
• H4H25637P (antibody, V domains shown) VH: QLQLQESGPGLVKPSETLSLTCTVSGDSISSSNYFWGWIRQPPGKGLEWIGNIYYSGDTYYNPSLKSRVTMSVDTSKKQFSLKLRSVTAADTAVYYCARGRPYYDFWSGYFDYWGQGTLVTVSS VL: EIVLTQSPGTLSLSPGERATLPCRASQSVSSSYLAWYQQKPGQAPRLLIYGASSRATGIPDRFRGSGSGTDFTLTISRLEPEDFAVYYCQQYGTAPWTFGQGTKVEIK = 0.4
